Test system: MS2 coat protein
protocol.notes: apparent KD of MS2 coat protein; designed switch direction (-1 OFF switch, 1 ON switch): -1; higher = weaker reporter binding
protocol.conditions: input ligand: none
Examples of sequences with documented apparent KD of MS2 coat protein follow.

ordered.residues | tested.on | apparent KD of MS2 coat protein (nM)
UGUUGUCGCGUAGGAUAUUGUCAACAGGCAAUAGGAUAUGCGAAAGCAGAAGGAUCGCCAACAGGCGAGAAGGACGGGACAACU [pwkr exNG2 2xF7 2xFMN.5] (Eterna round: R96, puzzle: Exclusion NG 2) | MS2 coat protein | 1140
AGACUGCUGCGAGGAUAUACAUGAGGAUCACCCAUGUUUUCCUGUGAGGCAUAGCCUCACAGGAUGUAGAAGGCGCAGUAGUCA [Mat - Exclusion NG 2 - Mod of JL - D30] (Eterna round: R96, puzzle: Exclusion NG 2) | MS2 coat protein | 11.9
UUUAGUCGUGACAUGGGUGACAUGAGGAUCACCCAUGUCACAAGCUUGUUGCUCGUCUUAUAAUUAACCCAUGUCAC [LRO Sensor-off var1-15 mod of Stov1-13-A1 by Brourd] (Eterna round: R97, puzzle: Sensor, turn-off variant 1) | MS2 coat protein | 19.6
GGUGGUAUUGUUAGGAUAUGGCAUGCCCGAGGCGUCUAGAAGGGACAUGAGGAUCACCCAUGUCUAGAAUUAAU [Eternabot (L2) Solution 53] (Eterna round: R97, puzzle: Brourd's mod of Exclusion 4) | MS2 coat protein | 45.5

* * *

Test system: MS2 coat protein
protocol.notes: apparent KD of MS2 coat protein; designed switch direction (-1 OFF switch, 1 ON switch): 1; higher = weaker reporter binding
protocol.conditions: input ligand: none

ordered.residues | apparent KD of MS2 coat protein
GCUAGAAUUAACGCCUACAUGAGGAUCACCCAUGUAUGUAGGCAGGAUAUCGUUUGCUUUGCAAACGAGAAGGGCCUUACUAGC [JL SSNG3 1.11] (Eterna round: R96, puzzle: Same State NG 3) | 0.042 µM
GGAGCCAAGGCAGGAUAUUCAUUAUAAAUUACAUGAGGAUCACCCAUGUUGGCCAGAAGGCCAUGGGAGAAGGGCCAUGGCUCG [Xeonanis - 13 mod25] (Eterna round: R96, puzzle: Same State NG 2) | 0.322 µM
GAAUAGUUGAGAGGAUAUCUAUGAUAAAAGGAUAGAGAAGGUUUUAACAUGAGGAUCACCCAUGUAGGACUAUAUAUGUGAAUA [Parity 82 - Jieux - Same State NG 1] (Eterna round: R96, puzzle: Same State NG 1) | 0.0169 µM
ACAUGAGGAUCACCCAUGUAUGCUCAGGAAACUGUGCAGCAUGAGGAUAUGGAUCCUAAUUGGAUCCAGAAGGCGUGAAUUAUU [Fiskers NG3ss - 25] (Eterna round: R96, puzzle: Same State NG 3) | 2.52 µM

* * *

Examples of sequences with documented apparent KD of K4 kissing-loop reporter follow.
Test system: K4 kissing-loop RNA reporter;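 also: bound reporter read as fluorescence of individual clusters on recovered sequencing chips by microscopy, with normalized cluster intensities fitted with a binding model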
protocol.notes: apparent KD of K4 kissing-loop reporter; higher = weaker reporter binding
protocol.conditions: Eterna round: R107; input ligand: FMN 200 uM

ordered.residues | tested.on | apparent KD of K4 kissing-loop reporter / nM
GUACGCUCUCGAGUGAUGUUCGGUAAUCCUUAGGAUAUCGCUUUUGCGAGAAGGAAGGGAAUGAGGAAACUCGUUCUGAGUGUAC [FMN A 21] | K4 kissing-loop RNA reporter | 523
UUAUAUUUCAGUGAUGUUGAAAAUAUAACAGAGGAUAUGCGUUUAAGCAGAAGGCUGAAAUACUAUACUUUAAUCUAUUAAAUUU [JR_Nu_SSFMNA_Sub027] | K4 kissing-loop RNA reporter | 195
CAUACGCAUGGAGGAUAUGAGAUUACUCAUAUCAUUUAAUAUUCUCAGUGAUGUUGAGAUUUGGGCUCAGAAGGCCAUGUGUAUG [Ex FMN B 15] | K4 kissing-loop RNA reporter | 479
GAUCUGAACGAAAGUUCGGAUCAGUCCGAUACCAGUAUGGAUUCAUACCCUUGGCAGCGGAAAUCUGCUAUGGAGUGAUGUUCCU [Theophylline A K4 13] | K4 kissing-loop RNA reporter | 362
GAAUUAUGUAGAAGGAGCGUUAGAAGGUAUAGGUGUGAGUGAUGUUCGGAUUUGUUAAUUUGACAGGUAGGUCGCUACAGAAGGA [KL-SSArg B17 #analogue] | K4 kissing-loop RNA reporter | 435
AGCAUUAUCAGAAGGAGCGUGUAUAAAUCAAUAGUAUUGUAUUCGAGUGAUGUUCGUAAUACACAGGUAGGUCGCUGAUAUUGCA [JR_ExcArginiB_Sub002] | K4 kissing-loop RNA reporter | 182

* * *

Tested on: MS2 coat protein
protocol.notes: apparent KD of MS2 coat protein, switch OFF state (with FMN for OFF switches, without FMN for ON switches); designed switch direction (-1 OFF switch, 1 ON switch): -1; higher = weaker reporter binding
protocol.conditions: FMN input: 0 or 200 uM; Eterna round: R93 (includes R88 designs)
Please use Yes whenever apparent KD of MS2 coat protein is not below 40 nM, and No whenever it is.

ordered.residues | category.label
AUUAUGUAAGGAUAUGAGUGAACAACAAAACAAAUAACGACUCAGAAGGUACAUGAGGAUCACCCAUGUAUAAA [May 70] | No
AAACUGGUAGGAUAUGCUAGGGCGAUUAAUACGCCGAUAGUACAUGAGGAUCACCCAUGUAGAAGGGCCAGAAA [Mat - Exclusion 2 - JL mod - D65] | No
AAGAAGUGAGGAUAUGUCUGUGCGAAAAAAAAAAAGUGCAGACAGAAGGCACAUGAGGAUCACCCAUGUGGAAA [Florian 65% 5] | No
AAAAAACAUGAGGAUCACCCAUGUGAGGAUAUCGGUAGUGAGGCUAUAGUGUCAAUAGUGAGAAGGCACAUAAA [Brourd 613 Mod 12 - Jieux - Exclusion 1] | No
AACAGUACAGGAUAUACAUGAGGAUCACCCAUGUGAAAAUUAAGUGGCGUACCACAAUGUAGAAGGGUACUGGA [Moding Maslow Revisited (73) 24] | Yes
AGCUAGUCAGGAUAUACGAACAUGUCAGAAGACGUGAAGGGACAUGAGGAUCACCCAUGUAGAAGGGACUAGCG [74%, Web mod - With 2 more G's] | Yes
CUCAUGUCAGGAUAUCAGUAGUAAAAAAAAAAAAUUACUACUGAGAAGGGACAUGAGGAUCACCCAUGUCCCUU [EX4 301: Super Stable 1] | No
AAACUACUAGGAUAUACAACGGUGUCCUAACUACUAAGAAAACAUGAGGAUCACCCAUGUAGAAGGAGUAAUAA [Cearused] | Yes
ACCACACAUGAGGAUCACCCAUGUGAGGAUAUCUAGAAAACCUCAUGUAAAAAAAUCUAGAGAAGGCAUAUGAA [Design 93: Pseudoknot C] | No
AAAAAACAUGAGGAUCACCCAUGUGAGGAUAUACAAAGAAAGACAGGCAAGUAAAGAGGUAGAAGGCGCAAAAA [Default title] | No
AAGAAGUCAGGAUAUGCUAAAGAAAUGAAAAGAAAGAAAGAACAUGAGGAUCACCCAUGUAGAAGGGACAAGAA [Dedumose I] | No
AAAAAACAUGAGGAUCACCCAUGUGAGGAUAUCGGAAAAGGAAAAAAAAAAAAGAAGACGAGAAGGCACAAAGA | No
ACGAAGAGAGGAUAUACGAACAUGUCAAAAGACGUGAAGGGACAUGAGGAUCACCCAUGUAGAAGGCUCUUCGA [Mat - Exclusion 2 - JL mod - D10] | Yes

* * *

Examples of sequences with documented apparent KD of MS2 coat protein follow.
Tested on: MS2 coat protein
protocol.notes: apparent KD of MS2 coat protein, switch ON state; designed switch direction (-1 OFF switch, 1 ON switch): -1; higher = weaker reporter binding
protocol.conditions: FMN input: 0 or 200 uM; Eterna round: R93 (includes R88 designs)
measure: apparent KD of MS2 coat protein (nM)

ordered.residues | recorded.result
ACAGUUACAGGAUAUACAUGGGUGAAAAAAGUAUAUCCACUACAUGAGGAUCACCCAUGUAGAAGGGUAACUGA [Ex2 Design 174: Random 3] | 18.6
AGUUGGCGAGGAUAUACAUGAGGAUCACCCAUGUAAAAUAAAUAAAAAAAGGGAGAAAGUAGAAGGCGCUGACA [73%, Moding Norbert Elias, 12] | 56.2
CUCAUGUGAGGAUAUCAGUAGUAAAAAAAAAAAAUUACUACUGAGAAGGCACAUGAGGAUCACCCAUGUGCCUU [EX4 325: Super Stable 25] | 18.9
AGUUGGCGAGGAUAUACAUGAGGAUCACCCAUGUAAAAUAAAUAAAAAAUAAAGGGAAGUAGAAGGCGCUGACA [73%, Moding Norbert Elias, 15] | 41.8
AAUUAGGUAGGAUAUACAUGAGGAUCACCCAUGUGGAAAAAAAACUACGAAAAAGAAUGUAGAAGGACCUAAAA [Ex 3 Frozen] | 18.8
CUCAAGUGAGGAUAUUCAAGAAAAGAAAAGAAAGAAAAGAAGAAGAAGGCACAUGAGGAUCACCCAUGUAAGAA [EteRNA is fun!] | 34.9
